Biological target: T1, hNPR1-mFc:hANP or hNPR1-hFc:hANP complex (human, UniProt P01160 124-151)
T1 construct: also called human NPR1 complexed to ANP
Assay: SPR, mAb captured, 37C
Parameter t½: see the listing below.
Numbers only here, please. The scale is h.

mAb22033 (antibody, human IgG4, V domains shown) VH: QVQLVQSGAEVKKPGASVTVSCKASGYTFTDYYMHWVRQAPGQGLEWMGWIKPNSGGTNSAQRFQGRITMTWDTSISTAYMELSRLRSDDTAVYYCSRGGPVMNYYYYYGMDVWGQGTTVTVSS VL: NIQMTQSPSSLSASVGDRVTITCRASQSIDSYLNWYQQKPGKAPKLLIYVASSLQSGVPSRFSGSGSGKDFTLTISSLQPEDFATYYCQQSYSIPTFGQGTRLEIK	1.97
mAb22805 (antibody, human IgG4, V domains shown) VH: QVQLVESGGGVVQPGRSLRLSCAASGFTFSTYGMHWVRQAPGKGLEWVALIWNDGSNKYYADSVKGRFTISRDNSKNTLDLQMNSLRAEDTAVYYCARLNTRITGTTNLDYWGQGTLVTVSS VL: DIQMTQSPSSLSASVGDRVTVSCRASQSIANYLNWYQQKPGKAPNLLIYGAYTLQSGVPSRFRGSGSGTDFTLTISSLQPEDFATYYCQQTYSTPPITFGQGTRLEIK	0.653
mAb25508 (antibody, human IgG4, V domains shown) VH: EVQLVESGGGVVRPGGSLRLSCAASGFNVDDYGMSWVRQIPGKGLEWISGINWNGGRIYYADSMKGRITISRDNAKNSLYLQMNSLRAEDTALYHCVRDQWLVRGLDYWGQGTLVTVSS VL: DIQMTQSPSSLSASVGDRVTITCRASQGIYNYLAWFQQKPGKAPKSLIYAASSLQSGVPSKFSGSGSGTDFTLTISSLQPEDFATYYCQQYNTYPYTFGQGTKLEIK	1.3
mAb22809 (antibody, human IgG4, V domains shown) VH: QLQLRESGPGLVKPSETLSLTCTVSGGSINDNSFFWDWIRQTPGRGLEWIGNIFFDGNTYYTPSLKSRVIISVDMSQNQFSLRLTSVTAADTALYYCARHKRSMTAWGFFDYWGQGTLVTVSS VL: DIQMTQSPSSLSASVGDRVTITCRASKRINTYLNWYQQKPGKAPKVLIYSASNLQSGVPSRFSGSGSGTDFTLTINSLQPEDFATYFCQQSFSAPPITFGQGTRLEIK	1.16

I have this binder here, mAb25497 (antibody, human IgG4, V domains shown) VH: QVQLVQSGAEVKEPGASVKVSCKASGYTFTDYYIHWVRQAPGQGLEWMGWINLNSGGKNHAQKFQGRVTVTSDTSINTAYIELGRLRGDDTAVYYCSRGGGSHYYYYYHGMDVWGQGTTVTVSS VL: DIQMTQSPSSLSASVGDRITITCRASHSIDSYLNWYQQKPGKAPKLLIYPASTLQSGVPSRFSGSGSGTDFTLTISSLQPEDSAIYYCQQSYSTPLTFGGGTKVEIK , and I need its recorded t½. 1.9

Origin of values: patent US20240309103A1
